target: T1, human BTN2A2 CFP(Nter)-fusion protein expressed on 293F BTN3/BTN2 KO cells (human, UniProt Q8WVV5 33-523)
T1 construct: also called pcDNA3-Zeo-BTN2A2-CFP; not shown: CFP fused at the N-terminus (CFP(Nter)-fusion)
T1 sequence: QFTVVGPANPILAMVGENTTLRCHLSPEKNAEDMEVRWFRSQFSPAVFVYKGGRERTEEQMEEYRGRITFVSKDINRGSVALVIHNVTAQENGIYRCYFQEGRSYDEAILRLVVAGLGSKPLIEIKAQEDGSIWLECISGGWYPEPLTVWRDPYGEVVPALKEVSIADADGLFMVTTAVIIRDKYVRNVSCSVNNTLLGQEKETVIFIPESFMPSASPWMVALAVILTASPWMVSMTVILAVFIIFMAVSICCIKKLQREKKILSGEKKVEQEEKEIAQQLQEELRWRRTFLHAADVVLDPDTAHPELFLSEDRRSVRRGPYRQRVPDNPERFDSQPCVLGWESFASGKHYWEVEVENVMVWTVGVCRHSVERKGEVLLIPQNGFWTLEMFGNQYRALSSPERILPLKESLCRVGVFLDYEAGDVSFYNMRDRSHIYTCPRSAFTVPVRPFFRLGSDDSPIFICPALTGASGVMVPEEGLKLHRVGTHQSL
protocol_details: flow cytometry (PE MFI in CFP-positive cells) on 293F BTN3/BTN2 KO cells transfected with BTN2A2-CFP
Some binders, each annotated with its measured EC50.

Below, 2 binders whose answers are already recorded.
binder: mAb4 (mouse anti-human BTN2 mAb 7.48) (antibody, V domains shown, Mouse IgG1 purified from hybridoma supernatant; also called CNCM I-5234) VH: EVQLVESGGDLVKPGGSLKLSCAASGFTFSDFYMYWVRRTPEKRLEWVATISDGGSHTYYPDSVKGRFTISRDNAKNNLYLQMRSLKSEDTAMYYCGRDTTIITPYWGQGTLVTVSA VL: QSVVTQESALTTSPGETVTLTCRSSTGAVTTSNYANWVQEKPDHLFTGLIGGTNNRAPGVPARFSGSLIGDKAALTITGAQTEDEAIYFCGLWYSNHWVFGGGTKLTVL
reported_value: 0.01 µg/mL

binder: mAb3 (mouse anti-human BTN2 mAb 7.28) (antibody, V domains shown, Mouse IgG1 purified from hybridoma supernatant; also called CNCM I-5233) VH: QVHLQQSGAELMKPGASVKISCKATGYTFSSYWIEWVKQRPGHGREWIGEILPGSGSTKYNEKFRGKATFAADTSSNTAYVQLSSLTSEDSAVYYCARLKGYYGGGAMDYWGQGTSVTVSS VL: DVQITQSPSYLAASPGETITINCRASKSISKYLAWYQEKPGKTNELLIYSGSTLQSGIPSRFSGSGSGTDFTLTISSLEPEDFAMYYCQQHNEYPWTFGGGTKLEIK
reported_value: 11.8 µg/mL

Pending binder:
Any idea what its EC50 is? The binder is mAb2 (mouse anti-human BTN2 mAb 5.28) (antibody, V domains shown, Mouse IgG1 purified from hybridoma supernatant; also called CNCM I-5232) VH: QIQLVQSGPELKKPGETVKISCKASGYTFTDYSMNWVKQAPGKGLKWVGRINTETGEPTYADDFKGRFAFSLETSASTAYLQIKNLKNEDTATYFCVRDYAKRWGQGTSVTVSS VL: DIVMTQSHKFMSTSVGDRVSITCKASQDVITAVAWYQQKPGQSPKLLIYSTSYRYTGVPDRFTGSGSGTDFTFTISSVQAEDLAVYYCLQHYTTPWTFGGGTKLEIK
0.01 µg/mL
